- Target: biotinylated human DLL3 protein expressed as a human IgG1 fusion protein (human) (UniProt Q9NYJ7)
- Sequence (Q9NYJ7 other isoform, or with tags, fused parts or gaps): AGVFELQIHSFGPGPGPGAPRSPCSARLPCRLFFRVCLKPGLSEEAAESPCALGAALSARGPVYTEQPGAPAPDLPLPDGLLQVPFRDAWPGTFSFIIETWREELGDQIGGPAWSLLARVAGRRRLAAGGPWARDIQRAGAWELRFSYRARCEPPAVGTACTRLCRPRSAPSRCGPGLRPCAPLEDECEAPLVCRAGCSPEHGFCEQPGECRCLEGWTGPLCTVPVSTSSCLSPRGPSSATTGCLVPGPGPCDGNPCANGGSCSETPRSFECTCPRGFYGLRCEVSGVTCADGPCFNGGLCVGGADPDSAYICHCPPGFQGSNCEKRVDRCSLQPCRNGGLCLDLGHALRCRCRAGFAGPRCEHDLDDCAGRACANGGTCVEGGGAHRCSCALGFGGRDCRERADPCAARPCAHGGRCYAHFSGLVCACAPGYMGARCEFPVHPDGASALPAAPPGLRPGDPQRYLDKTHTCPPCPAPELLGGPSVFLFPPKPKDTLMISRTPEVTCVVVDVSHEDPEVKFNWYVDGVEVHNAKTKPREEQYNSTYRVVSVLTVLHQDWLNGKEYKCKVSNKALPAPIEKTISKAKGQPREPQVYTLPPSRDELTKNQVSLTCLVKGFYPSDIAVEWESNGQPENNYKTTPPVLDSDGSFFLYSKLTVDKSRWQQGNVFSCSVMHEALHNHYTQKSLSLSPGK
- Assay Text: Octet BLI; biotinylated huDLL3-IgG1 fusion on streptavidin tips; single 50 nM; conditioned medium
Reported Kd values follow for various binders
Quantity: Kd (nM)

anti-DLL3 trispecific protein 4C02 (protein, part only; not given: CD3 fragment and albumin sdAb, part only) chain, part: EVQLVESGGGLVQPGGSLTLSCAASGSKVSFLSMAWYRQAPGKKRELVAGISADGSTTYIDSVKGRFTISRDNAKNSVYLQMNSLRAEDTAVYYCYAYRWTTRFTYWGQGTLVTVSSGGGGSGGGSGGGGSGGGSHHHHHH	6.8
anti-DLL3 trispecific protein 2A05 (protein, part only; not given: CD3 fragment and albumin sdAb, part only) chain, part: EVQLVESGGGLVQPGGSLTLSCVASGRTSSINAMGWYRRAPGKQRELVAGISSDGSKVYNDSVKGRFTISRDNAKNSVYLQMNSLRAEDTAVYYCYYFRTVSGTSMRYWGQGTLVTVSSGGGGSGGGSGGGGSGGGSHHHHHH	8.9
anti-DLL3 trispecific protein 3C05 (protein, part only; not given: anti-CD3 and anti-albumin domains, part only) chain, part: EVQLVESGGGLVQPGGSLTLSCVASGTSVSFLSMAWYRQAPGKKRELVAGISADGSTTYIDSVKGRFTISRDNAKNSVYLQMNSLRAEDTAVYYCYAYRWTTRRTYWGQGTLVTVSSGGGGSGGGSGGGGSGGGSHHHHHH	8.2
anti-DLL3 trispecific protein 2A01 (protein, part only; not given: anti-CD3 fragment and anti-albumin sdAb, part only) chain, part: EVQLVESGGGLVQPGGSLTLSCVASGSTSSINAMGWYRRAPGKQRELVAGISSDGSKVVADSVKGRFTISRDNAKNSVYLQMNSLRAEDTAVYYCYYFRTLSGSSMRYWGQGTLVTVSSGGGGSGGGSGGGGSGGGSHHHHHH	8
